Cited source: patent US11007270B2

For each entry below, report its c-Kit AVG % Activity at Specific Concentration value.
target: c-Kit (Homo sapiens); test: c-Kit tyrosine kinase inhibition, Caliper screening (fluorescent substrate phosphorylation, electrophoretic separation); format: biochemical; conditions: concentration 3.0E−09 (unit not given)
Sequence (P10721 26-976): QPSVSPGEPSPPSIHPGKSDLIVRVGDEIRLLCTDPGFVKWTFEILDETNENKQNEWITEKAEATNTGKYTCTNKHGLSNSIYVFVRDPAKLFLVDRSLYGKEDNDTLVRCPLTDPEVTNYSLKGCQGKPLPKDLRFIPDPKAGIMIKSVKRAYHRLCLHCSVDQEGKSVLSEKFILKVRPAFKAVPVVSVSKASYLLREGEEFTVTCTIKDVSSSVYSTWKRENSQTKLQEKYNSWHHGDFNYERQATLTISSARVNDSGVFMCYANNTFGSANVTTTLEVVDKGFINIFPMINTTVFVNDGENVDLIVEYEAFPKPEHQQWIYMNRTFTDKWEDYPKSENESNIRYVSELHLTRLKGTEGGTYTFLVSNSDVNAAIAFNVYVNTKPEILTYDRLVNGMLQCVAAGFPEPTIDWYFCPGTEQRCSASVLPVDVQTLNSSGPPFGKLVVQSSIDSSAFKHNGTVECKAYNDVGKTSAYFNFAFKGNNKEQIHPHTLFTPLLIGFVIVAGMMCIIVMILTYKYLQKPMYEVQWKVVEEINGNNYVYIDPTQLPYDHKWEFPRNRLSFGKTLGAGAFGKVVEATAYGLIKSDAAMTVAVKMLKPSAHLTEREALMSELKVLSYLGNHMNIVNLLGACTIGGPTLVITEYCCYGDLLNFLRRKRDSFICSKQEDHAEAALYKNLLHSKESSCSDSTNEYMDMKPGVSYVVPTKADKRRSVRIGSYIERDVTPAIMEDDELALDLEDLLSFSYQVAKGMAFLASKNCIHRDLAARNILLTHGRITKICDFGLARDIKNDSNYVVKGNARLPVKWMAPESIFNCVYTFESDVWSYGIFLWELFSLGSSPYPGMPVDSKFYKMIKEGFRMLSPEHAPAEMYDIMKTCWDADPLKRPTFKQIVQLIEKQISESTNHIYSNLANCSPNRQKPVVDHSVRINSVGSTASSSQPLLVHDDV
One number for each entry, in %.

Reference set, count: 4
Given Smiles	Study System	Units	Meas Value
COCCOCCOCCNC(=O)c1c(C)[nH]c(/C=C2\C(=O)Nc3ccc(F)cc32)c1C	c-Kit (Homo sapiens)	%	98
COCCOCCOCCOCCOCCOCCOCCOCCNC(=O)c1c(C)[nH]c(/C=C2\C(=O)Nc3ccc(F)cc32)c1C	c-Kit (Homo sapiens)	%	98
COCCOCCOCCOCCOCCOCCOCCOCCOCCNC(=O)c1c(C)[nH]c(/C=C2\C(=O)Nc3ccc(F)cc32)c1C	c-Kit (Homo sapiens)	%	105
COCCOCCOCCOCCOCCOCCNC(=O)c1c(C)[nH]c(/C=C2\C(=O)Nc3ccc(F)cc32)c1C	c-Kit (Homo sapiens)	%	99

State recorded c-Kit AVG % Activity at Specific Concentration for all listed compounds.
1. COCCOCCOCCOCCNC(=O)c1c(C)[nH]c(/C=C2\C(=O)Nc3ccc(F)cc32)c1C
2. COCCOCCOCCOCCOCCOCCOCCNC(=O)c1c(C)[nH]c(/C=C2\C(=O)Nc3ccc(F)cc32)c1C
3. COCCOCCOCCOCCOCCNC(=O)c1c(C)[nH]c(/C=C2\C(=O)Nc3ccc(F)cc32)c1C

1: 93; 2: 98; 3: 99

====

target: VEGFR-2 (Homo sapiens); assay: VEGFR-2 kinase inhibition, Caliper screening (fluorescent substrate phosphorylation, electrophoretic separation); conditions: concentration 1.0E−06 (unit not given)
Sequence (P35968 20-1356, species assumed): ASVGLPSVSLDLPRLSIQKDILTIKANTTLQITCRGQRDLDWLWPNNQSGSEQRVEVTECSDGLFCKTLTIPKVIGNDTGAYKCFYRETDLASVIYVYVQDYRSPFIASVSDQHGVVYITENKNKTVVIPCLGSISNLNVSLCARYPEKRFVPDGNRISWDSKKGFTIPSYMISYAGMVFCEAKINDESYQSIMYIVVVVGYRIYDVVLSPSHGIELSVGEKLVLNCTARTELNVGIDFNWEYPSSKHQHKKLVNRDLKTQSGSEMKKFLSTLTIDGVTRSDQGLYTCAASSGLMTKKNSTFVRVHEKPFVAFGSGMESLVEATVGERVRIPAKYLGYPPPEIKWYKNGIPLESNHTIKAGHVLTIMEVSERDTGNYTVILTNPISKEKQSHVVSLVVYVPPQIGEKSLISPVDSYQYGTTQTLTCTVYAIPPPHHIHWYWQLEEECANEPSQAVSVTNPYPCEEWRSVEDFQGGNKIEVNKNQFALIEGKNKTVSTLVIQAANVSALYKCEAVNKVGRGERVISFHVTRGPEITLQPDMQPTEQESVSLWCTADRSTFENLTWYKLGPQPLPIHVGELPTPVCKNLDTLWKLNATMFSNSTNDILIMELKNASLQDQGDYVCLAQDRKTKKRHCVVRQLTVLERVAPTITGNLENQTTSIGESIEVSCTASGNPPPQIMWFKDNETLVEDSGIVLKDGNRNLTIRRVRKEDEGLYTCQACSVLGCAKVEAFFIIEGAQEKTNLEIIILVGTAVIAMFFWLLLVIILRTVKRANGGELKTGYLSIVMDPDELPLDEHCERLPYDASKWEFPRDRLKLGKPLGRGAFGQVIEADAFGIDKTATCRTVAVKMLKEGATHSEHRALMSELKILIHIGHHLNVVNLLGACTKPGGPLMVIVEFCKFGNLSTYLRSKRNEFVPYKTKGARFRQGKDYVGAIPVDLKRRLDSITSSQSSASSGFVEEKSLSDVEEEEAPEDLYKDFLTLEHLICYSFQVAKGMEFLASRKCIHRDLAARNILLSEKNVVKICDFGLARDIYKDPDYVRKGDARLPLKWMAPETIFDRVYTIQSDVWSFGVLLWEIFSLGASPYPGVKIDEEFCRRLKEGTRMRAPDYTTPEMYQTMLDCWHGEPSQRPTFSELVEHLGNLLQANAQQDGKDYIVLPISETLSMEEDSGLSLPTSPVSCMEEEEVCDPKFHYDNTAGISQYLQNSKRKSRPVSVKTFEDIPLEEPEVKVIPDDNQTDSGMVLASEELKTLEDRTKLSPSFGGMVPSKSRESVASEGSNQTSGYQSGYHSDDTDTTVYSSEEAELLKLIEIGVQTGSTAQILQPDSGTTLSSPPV
For each entry below, report its VEGFR-2 AVG % Activity at Specific Concentration value.
Kindly report the value followed by its unit.

Given Smiles	Meas Value
COCCOCCOCCOCCNC(=O)c1c(C)[nH]c(/C=C2\C(=O)Nc3ccc(F)cc32)c1C	12%
COCCOCCOCCNC(=O)c1c(C)[nH]c(/C=C2\C(=O)Nc3ccc(F)cc32)c1C	0%
COCCOCCOCCOCCOCCOCCOCCOCCNC(=O)c1c(C)[nH]c(/C=C2\C(=O)Nc3ccc(F)cc32)c1C	24%
COCCOCCOCCOCCOCCOCCOCCNC(=O)c1c(C)[nH]c(/C=C2\C(=O)Nc3ccc(F)cc32)c1C	19%

Kindly review the next compound as well.
// VEGFR-2 AVG % Activity at Specific Concentration lookup, compound = COCCOCCOCCOCCOCCOCCOCCOCCOCCNC(=O)c1c(C)[nH]c(/C=C2\C(=O)Nc3ccc(F)cc32)c1C , result: 20%

====

biological target: RET (Homo sapiens, UniProt P07949)
Sequence (P07949 29-1114, species assumed): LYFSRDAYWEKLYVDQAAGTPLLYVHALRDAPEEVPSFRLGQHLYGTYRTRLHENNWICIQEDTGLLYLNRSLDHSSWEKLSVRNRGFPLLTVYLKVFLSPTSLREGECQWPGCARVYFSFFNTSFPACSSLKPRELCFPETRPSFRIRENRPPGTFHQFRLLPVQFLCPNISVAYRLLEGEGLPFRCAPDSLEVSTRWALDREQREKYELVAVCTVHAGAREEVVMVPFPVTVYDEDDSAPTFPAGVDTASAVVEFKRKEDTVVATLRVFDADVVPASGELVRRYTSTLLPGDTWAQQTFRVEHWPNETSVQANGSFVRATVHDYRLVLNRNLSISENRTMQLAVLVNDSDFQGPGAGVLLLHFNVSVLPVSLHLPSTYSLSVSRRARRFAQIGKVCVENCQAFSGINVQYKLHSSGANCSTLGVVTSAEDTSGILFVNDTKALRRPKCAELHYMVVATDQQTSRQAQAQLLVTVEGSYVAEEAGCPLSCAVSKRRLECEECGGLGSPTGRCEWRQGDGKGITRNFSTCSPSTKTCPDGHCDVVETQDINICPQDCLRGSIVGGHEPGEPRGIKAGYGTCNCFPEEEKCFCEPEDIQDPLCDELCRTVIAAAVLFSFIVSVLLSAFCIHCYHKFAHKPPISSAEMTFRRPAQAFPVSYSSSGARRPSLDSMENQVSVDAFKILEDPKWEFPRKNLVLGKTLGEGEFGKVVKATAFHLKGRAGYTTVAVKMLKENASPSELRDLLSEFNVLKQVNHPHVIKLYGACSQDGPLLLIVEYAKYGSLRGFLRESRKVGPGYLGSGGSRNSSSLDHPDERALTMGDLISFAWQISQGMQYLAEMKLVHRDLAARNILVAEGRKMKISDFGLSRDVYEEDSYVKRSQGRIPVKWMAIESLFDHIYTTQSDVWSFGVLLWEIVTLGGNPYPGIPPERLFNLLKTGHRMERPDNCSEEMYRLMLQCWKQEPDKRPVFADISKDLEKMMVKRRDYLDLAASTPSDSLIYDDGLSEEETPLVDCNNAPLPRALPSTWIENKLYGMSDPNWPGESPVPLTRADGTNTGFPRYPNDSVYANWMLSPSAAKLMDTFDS
Experimental Endpoint: IC50 (nM)
Answers are plain numbers, in nM.

// IC50 lookup, compound = COCCOCCOCCOCCOCCNC(=O)c1c(C)[nH]c(/C=C2\C(=O)Nc3ccc(F)cc32)c1C , result: 440

====

biological target: RET (Homo sapiens, UniProt P07949); assay: RET kinase inhibition, Caliper screening (fluorescent substrate phosphorylation, electrophoretic separation); conditions: concentration 3.0E−05 (unit not given)
Experimental Endpoint: RET AVG % Activity at Specific Concentration (%)
Numbers only, in %.

State recorded RET AVG % Activity at Specific Concentration for all listed compounds.
1. COCCOCCOCCOCCNC(=O)c1c(C)[nH]c(/C=C2\C(=O)Nc3ccc(F)cc32)c1C
2. COCCOCCOCCOCCOCCOCCOCCOCCOCCNC(=O)c1c(C)[nH]c(/C=C2\C(=O)Nc3ccc(F)cc32)c1C
3. COCCOCCOCCOCCOCCOCCOCCOCCNC(=O)c1c(C)[nH]c(/C=C2\C(=O)Nc3ccc(F)cc32)c1C
4. COCCOCCOCCOCCOCCNC(=O)c1c(C)[nH]c(/C=C2\C(=O)Nc3ccc(F)cc32)c1C
5. COCCOCCOCCNC(=O)c1c(C)[nH]c(/C=C2\C(=O)Nc3ccc(F)cc32)c1C
6. COCCOCCOCCOCCOCCOCCOCCNC(=O)c1c(C)[nH]c(/C=C2\C(=O)Nc3ccc(F)cc32)c1C

−1
0
0
−1
−1
0
